The origin of these recorded values is paper PMC9804470.

Target: catalytic domain of human PTP1B (Homo sapiens)
Construct: catalytic domain of human PTP1B (amino acids 1–321); His7 (N, cleaved yes); made in house; host or cells: E. coli Rosetta (DE3)
Sequence (P18031 1-321): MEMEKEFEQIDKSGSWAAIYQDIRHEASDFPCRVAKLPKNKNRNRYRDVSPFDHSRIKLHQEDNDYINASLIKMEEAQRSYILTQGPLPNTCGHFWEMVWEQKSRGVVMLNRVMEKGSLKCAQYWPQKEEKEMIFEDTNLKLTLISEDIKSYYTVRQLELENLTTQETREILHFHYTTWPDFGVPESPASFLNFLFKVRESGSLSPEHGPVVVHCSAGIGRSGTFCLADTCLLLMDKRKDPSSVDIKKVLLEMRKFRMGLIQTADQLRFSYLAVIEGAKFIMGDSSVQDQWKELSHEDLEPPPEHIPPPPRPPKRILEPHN
Assay: Enzyme activity assay of PTP1B with fluorogenic substrate DiFMUP
Assay type: biochemical
Conditions: SD; read-out: KI PTP1B
Experimental: Protein Expression and purification: DNA encoding the catalytic domain of human PTP1B (amino acids 1–321) was subcloned into the pQLinkH vector. The gene encoding the N‐terminal His7‐tagged protein was over‐expressed at 17 °C in E. coli Rosetta (DE3). […] Enzyme activity assays of SHP2 and PTP1B: The catalytic activity of SHP2 catalytic domain and PTP1B were monitored using the fluorogenic substrate DiFMUP (6,8‐difluoro‐4‐methylumbelliferyl phosphate). […]
Where a SMILES comes first, the peptide text is derived from it. [ ]: non-standard residue; d: D form. The star is where a group is joined. ξ: configuration not given here. F2Pmp = N[C@@H](Cc1ccc(C(F)(F)P(=O)(O)O)cc1)C(=O)O; X4 = O=S(=O)(Nc1ccc(*)cc1)C(F)(F)F; X2 = O=C(O)COc1ccc(*)cc1; X1 = O=C(O)Cc1ccc(*)cc1; Dap = NC[C@H](N)C(=O)O; ξDap = NCC(N)C(=O)O
Endpoint name: Ki (µM)
The answer is to be given in µM; state only the numeric part.

Reported Ki ( CC(=O)N[C@@H](CC(=O)O)C(=O)N[C@@H](C)C(=O)N[C@@H](CC(=O)O)C(=O)N[C@@H](CCC(=O)O)C(=O)NC(C=O)C(=O)N[C@@H](CC(C)C)C(N)=O (some centres unmarked) ) = 484

Reported Ki ( CC(=O)N[C@@H](CC(=O)O)C(=O)N[C@@H](C)C(=O)N[C@@H](CC(=O)O)C(=O)N[C@@H](CCC(=O)O)C(=O)N[C@@H](Cc1ccc(C(F)(F)P(=O)(O)O)cc1)C(=O)N[C@@H](CC(C)C)C(N)=O [Compound 2, Ac-DADE-(PDFM-F)-L-NH2, reference compound] (Ac-DADE[F2Pmp]L-NH2) ) = 1.4

Reported Ki ( CC(=O)N[C@@H](CC(=O)O)C(=O)N[C@@H](C)C(=O)N[C@@H](CC(=O)O)C(=O)N[C@@H](CCC(=O)O)C(=O)NC(CNc1ccc(OCC(=O)O)cc1)C(=O)N[C@@H](CC(C)C)C(N)=O (stereo partly drawn) [Compound 16] (Ac-DADE[ξDap](X2)L-NH2) ) = 213

Reported Ki ( CC(=O)N[C@@H](CC(=O)O)C(=O)N[C@@H](C)C(=O)N[C@@H](CC(=O)O)C(=O)N[C@@H](CCC(=O)O)C(=O)N[C@@H](CNc1ccc(NS(=O)(=O)C(F)(F)F)cc1)C(=O)N[C@@H](CC(C)C)C(N)=O [Compound 18] (Ac-DADE[Dap](X4)L-NH2) ) = 202

Reported Ki ( CC(=O)N[C@@H](CC(=O)O)C(=O)N[C@@H](C)C(=O)N[C@@H](CC(=O)O)C(=O)N[C@@H](CCC(=O)O)C(=O)NC(CNc1ccc(CC(=O)O)cc1)C(=O)N[C@@H](CC(C)C)C(N)=O (stereo partly drawn) [Compound 15] (Ac-DADE[ξDap](X1)L-NH2) ) = 138

* * *

Target: catalytic domain of human SHP2 (Homo sapiens, UniProt Q06124)
Construct: catalytic domain of human SHP2 (amino acids 225–541); His10 (N); made in house; host or cells: E. coli B21 (DE3)
Sequence (Q06124 225-541): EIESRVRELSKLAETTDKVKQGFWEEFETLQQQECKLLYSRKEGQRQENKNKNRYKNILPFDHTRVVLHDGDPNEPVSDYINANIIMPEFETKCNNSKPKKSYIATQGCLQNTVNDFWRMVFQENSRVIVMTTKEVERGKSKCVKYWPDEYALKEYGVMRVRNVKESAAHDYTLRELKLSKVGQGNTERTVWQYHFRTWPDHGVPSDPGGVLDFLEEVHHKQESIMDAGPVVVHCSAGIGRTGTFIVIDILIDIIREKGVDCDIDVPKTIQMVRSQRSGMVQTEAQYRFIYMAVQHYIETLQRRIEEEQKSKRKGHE
Experiment: Enzyme activity assay of SHP2 catalytic domain with fluorogenic substrate DiFMUP
Format: biochemical
Conditions: hydrazine fragments alone, DiFMUP assay; Supporting Table 1
Endpoint name: IC50

Reported IC50 ( NNc1ccc(S(=O)(=O)O)cc1 [Compound F3, 4‐hydrazo‐phenylsulfonic acid] ) = > 250 µM
